Provenance of the data: the RNAGym collection of RNA variant scans (doi:10.1093/nar/gkz1192)

B1: CPEB3 Ribozyme (parent)
chain: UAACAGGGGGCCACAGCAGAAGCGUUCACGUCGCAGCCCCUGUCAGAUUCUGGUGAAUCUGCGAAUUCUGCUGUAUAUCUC

variants of: B1; experiment: self-cleavage, relative activity (ratio to wild type); higher = more cleavage; in vitro, sequencing
Overview of reported self-cleavage across a group of variants:
API doc: respond with a numeric literal and nothing else, no unit.

Example results:
U43A U74C ... 1.24
U51G U54A ... 1.28
U69C ... 0.59
U43A A75G ... 1.01

Lab note: measured self-cleavage of G52C A65G was 0.49

Lab note: measured self-cleavage of G6C U69C was 0.21

Lab note: measured self-cleavage of U1A A64U was 0.28

Lab note: measured self-cleavage of C32A U74C was 0.22

Lab note: measured self-cleavage of C4U A5G was 0.84

Lab note: measured self-cleavage of A21G A64G was 0.42

Lab note: measured self-cleavage of A15C U76A was 1.19
